TEST_SYSTEM: UniProt O00329
Sequence (O00329 whole entry): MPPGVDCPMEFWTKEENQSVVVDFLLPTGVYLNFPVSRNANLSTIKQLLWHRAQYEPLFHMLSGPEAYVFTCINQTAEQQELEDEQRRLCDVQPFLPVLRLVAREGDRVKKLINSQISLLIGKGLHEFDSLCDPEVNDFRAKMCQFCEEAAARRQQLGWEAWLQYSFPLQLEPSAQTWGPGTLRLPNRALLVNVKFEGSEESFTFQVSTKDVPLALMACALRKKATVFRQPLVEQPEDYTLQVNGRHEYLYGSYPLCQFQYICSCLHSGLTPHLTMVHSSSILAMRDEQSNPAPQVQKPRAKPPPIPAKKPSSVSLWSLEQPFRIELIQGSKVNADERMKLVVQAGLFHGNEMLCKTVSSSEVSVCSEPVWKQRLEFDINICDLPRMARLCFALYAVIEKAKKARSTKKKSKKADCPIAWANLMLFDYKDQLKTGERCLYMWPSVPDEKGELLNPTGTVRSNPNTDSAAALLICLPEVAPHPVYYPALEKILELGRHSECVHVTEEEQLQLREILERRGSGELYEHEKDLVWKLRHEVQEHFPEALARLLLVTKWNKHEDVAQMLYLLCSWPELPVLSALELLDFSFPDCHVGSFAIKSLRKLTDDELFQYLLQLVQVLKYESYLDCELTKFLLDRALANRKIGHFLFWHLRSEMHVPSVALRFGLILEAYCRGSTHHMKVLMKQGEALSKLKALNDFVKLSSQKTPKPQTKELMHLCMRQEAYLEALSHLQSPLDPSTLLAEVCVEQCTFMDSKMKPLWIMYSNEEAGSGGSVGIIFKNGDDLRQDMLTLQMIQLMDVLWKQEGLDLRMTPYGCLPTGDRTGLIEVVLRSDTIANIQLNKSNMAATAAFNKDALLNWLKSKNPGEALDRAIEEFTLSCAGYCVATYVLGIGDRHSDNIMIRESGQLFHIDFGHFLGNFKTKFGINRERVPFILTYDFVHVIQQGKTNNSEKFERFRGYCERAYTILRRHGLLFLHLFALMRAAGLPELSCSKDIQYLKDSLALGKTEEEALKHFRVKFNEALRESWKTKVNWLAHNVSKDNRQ
Sequence (P27986 whole entry partner): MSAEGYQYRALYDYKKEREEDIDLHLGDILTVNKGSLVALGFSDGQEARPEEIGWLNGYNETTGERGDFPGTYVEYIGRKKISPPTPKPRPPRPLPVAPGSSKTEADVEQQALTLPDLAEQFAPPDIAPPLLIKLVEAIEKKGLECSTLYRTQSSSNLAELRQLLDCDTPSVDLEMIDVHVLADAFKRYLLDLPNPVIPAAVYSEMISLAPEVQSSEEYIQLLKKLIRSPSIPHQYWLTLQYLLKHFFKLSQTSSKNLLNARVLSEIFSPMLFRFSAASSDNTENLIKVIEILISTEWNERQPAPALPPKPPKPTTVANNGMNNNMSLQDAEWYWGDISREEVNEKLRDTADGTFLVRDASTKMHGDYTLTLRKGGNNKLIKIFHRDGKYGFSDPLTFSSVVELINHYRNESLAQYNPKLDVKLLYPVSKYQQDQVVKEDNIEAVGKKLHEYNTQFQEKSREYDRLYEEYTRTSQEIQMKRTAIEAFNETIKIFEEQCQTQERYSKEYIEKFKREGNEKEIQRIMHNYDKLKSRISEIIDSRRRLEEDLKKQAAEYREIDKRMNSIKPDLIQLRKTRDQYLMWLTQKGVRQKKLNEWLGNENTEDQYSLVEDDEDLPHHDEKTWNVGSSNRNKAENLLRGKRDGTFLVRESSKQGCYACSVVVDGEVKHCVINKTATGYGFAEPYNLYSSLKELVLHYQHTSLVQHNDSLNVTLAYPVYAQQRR
MEASUREMENT_PROTOCOL: PI3Kδ inhibitory activity
Assay type: biochemical
COND: at the concentration of 100 nM; mean of at least two experiments
inhibition at 0.1 µM: recorded values
REPORTED_METRIC: inhibition at 0.1 µM (%)

compound="CC[C@H](Nc1ncnc2[nH]cnc12)c1nc2cccc(F)c2c(=O)n1-c1ccccc1 [Compound 1, idelalisib, reference compound]" test_system="UniProt O00329" reported_metric="inhibition at 0.1 µM" readout_units=% assay_value=96
compound="COc1ccc(-c2ccc3ncnc(N[C@H]4CCCN(C(=O)OC(C)(C)C)C4)c3c2)cn1 [Compound 14a]" test_system="UniProt O00329" reported_metric="inhibition at 0.1 µM" readout_units=% assay_value=51
compound="COc1ccc(-c2ccc3ncnc(NC4CCN(C(=O)C5CC5)CC4)c3c2)cn1 [Compound 16b]" test_system="UniProt O00329" reported_metric="inhibition at 0.1 µM" readout_units=% assay_value=70
compound="COc1ccc(-c2ccc3ncnc(O[C@H]4CCN(C(=O)C5CCOCC5)C4)c3c2)cn1 [Compound 12d]" test_system="UniProt O00329" reported_metric="inhibition at 0.1 µM" readout_units=% assay_value=98
